quantity: melting point

Would you please look over these solved cases?
compound	melting point
CC(C)(C)S(=O)(=O)C(=[N+]=[N-])S(=O)(=O)C(C)(C)C	121 to 122 °C
CC(C)Cn1c(CNC(=O)OC(C)(C)C)c(-c2ccc(F)cc2)c2cc(/C=C/C(=O)O)ccc2c1=O	201 to 202 °C

Read the next record carefully.
Entry under review: O=C(CSc1ncccn1)NC/C=C\COc1cc(CN2CCCCC2)ccn1 . Reported melting point?
103 to 106 °C

====

# reported melting point; entries follow

Would you please look over these solved cases?
compound	result
Cn1c(C(F)(F)F)cc(=O)n(-c2cc(OS(C)(=O)=O)c(Cl)cc2F)c1=O	176 to 178 °C
O=C(Nc1ccc(C(=O)N2Cc3ccccc3Cc3cc(Cl)ccc32)cc1)c1ccc(Cl)cc1Cl	199 to 201 °C
CC(C)(C)C(=O)OCCc1c(-c2ccccc2)nc(N)n2ncnc12	160 °C

Read the next record carefully.
Entry under review: O=C(SCCC(=O)N1C(c2ccccc2O)CC[C@H]1C(=O)N[C@@H](Cc1ccccc1)C(=O)O)c1ccccc1 (some centres undefined) . Reported melting point?
72 to 102 °C

Reference for the values: a melting point compilation (Tetko et al.; mined from patent text by program, amines drawn as free bases though some values may be those of a salt)
